method_notes: qHTS profiling of the MIPE4 collection as inhibitors of Plasmodium falciparum (HB3) proliferation (AID 743347);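 further: plate controls were DMSO vehicle wells for no effect and artemisinin wells for full effect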
test_parameters: P. falciparum HB3 in erythrocytes, SYBR Green DNA, 72 h; at 28.5 µM (top of the series) unless noted
Define the label as yes (1) when growth, % of control is strictly less than 20% and as no (0) in all remaining cases.

Regarding CC(C)c1ccc2oc3nc(N)c(C(=O)O)cc3c(=O)c2c1 , kindly confirm whether its growth, % of control is beneath 20%.
no (0)

Please determine if Nc1ncn([C@H]2C[C@H](O)[C@@H](CO)O2)c(=O)n1 is below 20% in terms of growth, % of control.
no (0)

Below 20% on growth, % of control? Entry Cc1ccc(C)c(OCCCC(C)(C)C(=O)O)c1
yes (1)

Threshold test, growth, % of control < 20%: O=C(OC1C[C@H]2CC[C@@H](C1)[N+]21CCCC1)C(O)(c1ccccc1)c1ccccc1 (some centres undefined)
yes (1)

For Cc1nccn1CC1CCc2c(c3ccccc3n2C)C1=O (centres undefined) , is the recorded growth, % of control below the cut-off of 20%?
no (0)

growth, % of control under 20%? Item: CC(C)c1ccc2c(c1)c(SC(C)(C)C)c(CC(C)(C)C(=O)O)n2Cc1ccc(Cl)cc1
yes (1)

Does the reported growth, % of control of the following compound sit strictly below 20%? CC(=O)O[C@H]1C(=O)[C@@]2(C)C([C@H](OC(=O)c3ccccc3)[C@]3(O)C[C@H](OC(=O)[C@H](O)[C@@H](NC(=O)c4ccccc4)c4ccccc4)C(C)=C1C3(C)C)[C@]1(OC(C)=O)CO[C@@H]1C[C@@H]2O (some centres undefined)
yes (1)

Strictly below 20% in growth, % of control? Cc1ncc([N+](=O)[O-])n1CC(C)O (centres undefined)
no (0)

Below 20% on growth, % of control? Entry Cc1cc(=O)c2c(O)c3c(O)cc(=O)c4c3c3c(cc(O)c1c23)C(C)(C)C=4O
yes (1)

###

method_notes: Primary fluorescence-based thiol-reactive (MSTI) qHTS assay for identification of artifact compounds. (AID 1845221); further: nearly all actives have a fitted effect of over 65% in size
test_parameters: MSTI thiol-reactivity probe, 1 h; series mostly up to 53.8 µM
Inconclusive results are not listed. Calls of active or inactive are those of the source. The call rests on the fitted dose curve; in most records, active means well fitted inhibition curve with a large enough effect; inconclusive means small, poorly fitted or top-dose-only effect; inactive means no such curve, though single readings can be large or run the other way.
Outcome (select one): active, inactive

Each compound tested received a call. Report the one for Cc1ccc(NC(=O)c2ccc(CN3CCN(C)CC3)cc2)cc1Nc1nccc(-c2cccnc2)n1 .
inactive

Hi team, can someone confirm the assay call for CC(=O)O[C@H]1C(=O)[C@@]2(C)C([C@H](OC(=O)c3ccccc3)[C@]3(O)C[C@H](OC(=O)[C@H](O)[C@@H](NC(=O)c4ccccc4)c4ccccc4)C(C)=C1C3(C)C)[C@]1(OC(C)=O)CO[C@@H]1C[C@@H]2O (stereo not given in full) ?
inactive

Give the logged outcome of this assay for the following compound: O=C(O)c1cccc(-c2noc(-c3ccccc3F)n2)c1
inactive

For this compound, state the assay outcome: CN(c1nccc(=O)[nH]1)C1CCN(c2nc3ccccc3n2Cc2ccc(F)cc2)CC1
inactive

For N[C@@H](Cc1cc(I)c(Oc2cc(I)c(O)c(I)c2)c(I)c1)C(=O)O , which call appears in the assay record?
active

###

method_notes: qHTS profiling of the MIPE4 collection as inhibitors of Plasmodium falciparum (HB3) proliferation (AID 743347);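 further: plate controls were DMSO vehicle wells for no effect and artemisinin wells for full effect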
test_parameters: P. falciparum HB3 in erythrocytes, SYBR Green DNA, 72 h; at 28.5 µM (top of the series) unless noted
Assign labels as follows, please: Criterion met for growth, % of control below 50%; Criterion not met for growth, % of control equal to or exceeding 50%.

Hello, is growth, % of control of the following compound strictly smaller than 50%? COc1cc2c(cc1OC)C1CC(=O)C(CC(C)C)CN1CC2 (stereo unspecified)
Criterion not met

Bench note: check whether Cc1cc(O)c2c(c1)C(=O)c1cc(O)cc(O)c1C2=O shows growth, % of control below 50%
Criterion not met

In plain terms, does CCOC(=O)c1c(C)n(C)c2ccc(O)cc12 come in under 50% for growth, % of control?
Criterion not met

Input C[C@H](Cc1ccc(O)c(O)c1)[C@@H](C)Cc1ccc(O)c(O)c1 ; condition: growth, % of control strictly below 50%. Does it hold?
Criterion met

Does the reported growth, % of control of the following compound sit strictly below 50%? NNc1nncc2ccccc12
Criterion not met

Here's an entry: O=C1c2ccccc2-c2n[nH]c3cccc1c23 . Is its growth, % of control below 50%?
Criterion not met

Report whether reported growth, % of control is lower than 50% (strictly) for Cc1cc(C2CCCCC2)n(O)c(=O)c1
Criterion met

# check: growth, % of control < 50% for CCN(CC)CCOc1ccc(Nc2ncc3cc(-c4c(Cl)cccc4Cl)c(=O)n(C)c3n2)cc1
Criterion met

Take the compound COc1cc(OC)c(C(=O)CCCN2CCCC2)c(OC)c1 and say whether its growth, % of control is less than 50%.
Criterion not met

Please let me know if COC(=O)C1=C(C)NC(C)=C(C(=O)OCCCN2CCC(c3ccccc3)(c3ccccc3)CC2)C1c1cccc([N+](=O)[O-])c1 (stereo unspecified) shows growth, % of control below 50%.
Criterion not met

###

System: AS120
method_notes: qHTS profiling for inhibitors of Plasmodium falciparum proliferation (AID 504749); further: nearly all actives have a fitted effect of over 60% in size; further: potency means the concentration at half of the fitted maximal effect
test_parameters: P. falciparum in erythrocytes, SYBR Green DNA, 72 h; series mostly up to 28.7 µM
Results filed as inconclusive are left out. Activity calls are given as the source filed them. The call rests on the fitted dose curve; in most records, active means well fitted inhibition curve with a large enough effect; inconclusive means small, poorly fitted or top-dose-only effect; inactive means flat fitted curve, though single readings scatter.
measurement_name: Potency

compound | Potency
CCCCN(CCCC)CCC(O)c1cc2c(Cl)cc(Cl)cc2c2cc(C(F)(F)F)ccc12 (stereo not given) | 5.6 nM (active)
Cc1cc(=O)c2c(O)c3c(O)cc(=O)c4c3c3c(cc(O)c1c23)C(C)(C)C=4O | 1780 nM (active)
Cc1ccc(NC(=O)c2ccc(CN3CCN(C)CC3)cc2)cc1Nc1nccc(-c2cccnc2)n1 | 8910 nM (active)
Cc1ncc([N+](=O)[O-])n1CC(C)O (stereo not given) | inactive
CC(C)[C@H](N)C(=O)OCCOCn1cnc2c(=O)[nH]c(N)nc21 | inactive

Please look up its Potency: CC1(C)CCC(C)(C)c2cc(NC(=O)c3ccc(C(=O)O)cc3)ccc21
inactive

Which Potency value belongs to Cc1nc2n(c(=O)c1CCN1CCC(c3noc4cc(F)ccc34)CC1)CCCC2 ?
inactive

Quick one: Potency of CN(C)CCc1c[nH]c2ccc(Cn3cncn3)cc12 ?
inactive

GET /values?readout=Potency&item= O=c1oc2cc(O)ccc2s1
inactive

Would you kindly share the measured Potency for COC1=C(OC)C(=O)C(CCCCCCCCCCO)=C(C)C1=O ?
inactive

###

System: 7G8
method_notes: qHTS profiling for inhibitors of Plasmodium falciparum proliferation (AID 504749); further: nearly all actives have a fitted effect of over 60% in size
test_parameters: P. falciparum in erythrocytes, SYBR Green DNA, 72 h; series mostly up to 28.7 µM
Results filed as inconclusive are left out. Activity calls are given as the source filed them. Calls follow the shape of the dose curve; as a rule, active = well fitted inhibition curve with a large enough effect; inconclusive = small, poorly fitted or top-dose-only effect; inactive = flat fitted curve, though single readings scatter.
Result category, one only: active, inactive

In this assay, the call recorded for CC1(C)NC(=O)N(c2ccc([N+](=O)[O-])c(C(F)(F)F)c2)C1=O was what?
inactive

Assay outcome for CCCOc1ccc2nc(NC(=O)OC)[nH]c2c1 : what was it?
inactive

Which result was noted for this compound in the test: C[Se]CCC(N)C(=O)O (centres undefined)
inactive

Per the assay record, what outcome was assigned to C[C@H](Cn1cnc2c(N)ncnc21)OCP(=O)(O)O ?
inactive

Dear all, I need the recorded test outcome for Cc1nc(Nc2ncc(C(=O)Nc3c(C)cccc3Cl)s2)cc(N2CCN(CCO)CC2)n1 , thank you.
active

What call does the record list for C[C@]12CCC(=O)C=C1CC[C@@H]1[C@H]2[C@@H](O)C[C@@]2(C)[C@H]1CC[C@]2(O)C(=O)CO ?
inactive

Which result was noted for this compound in the test: CCOC(=O)c1c(C)n(C)c2ccc(O)cc12
inactive

Test call for this compound, please: COc1cc2c(cc1OC)C1CC(=O)C(CC(C)C)CN1CC2 (centres undefined)
inactive

Status in this test for CCc1nc(N)nc(N)c1-c1ccc(Cl)cc1 ?
active

Give the logged outcome of this assay for the following compound: CN(C)c1ccc2nc3ccc(=[N+](C)C)cc-3sc2c1
active

Outcome logged for O=P(O)(O)C(O)(Cn1ccnc1)P(=O)(O)O in this assay:
inactive

Write down the call the test reported for this compound. Item: O=C(CS(=O)Cc1ccco1)NCC=CCOc1cc(CN2CCCCC2)ccn1 (centres undefined)
inactive

Check the results log: what was the call for NNc1nncc2ccccc12 ?
active

Tell me the recorded outcome of this test for Cc1cccc(C)c1OCC(=O)N[C@@H](Cc1ccccc1)[C@@H](O)C[C@H](Cc1ccccc1)NC(=O)[C@H](C(C)C)N1CCCNC1=O .
active

Please let me know the test result on file for Nc1cc(C(Cl)=C(Cl)Cl)c(S(N)(=O)=O)cc1S(N)(=O)=O .
inactive

// param item: O=C1CCc2ccc(OCCCCN3CCN(c4cccc(Cl)c4Cl)CC3)cc2N1 ; yields the recorded call
active

Would you mind telling me which call this test gave CC(C)(S)[C@@H](N)C(=O)O ?
inactive

Would you mind telling me which call this test gave CC1=C(C)C(=O)C(C(CCCCCC(=O)O)c2ccccc2)=C(C)C1=O (centres undefined) ?
inactive

Dear all, I need the recorded test outcome for COC(=O)C1=C(C)NC(C)=C(C(=O)OCCCN2CCC(c3ccccc3)(c3ccccc3)CC2)C1c1cccc([N+](=O)[O-])c1 (centres undefined) , thank you.
active

State the result this test recorded for CS(=O)(=O)OCCCCOS(C)(=O)=O .
inactive

Returns: the outcome recorded for COc1cc(OC)c(C(=O)CCCN2CCCC2)c(OC)c1 in this assay.
inactive

Give the logged outcome of this assay for the following compound: CCCc1cc(=O)[nH]c(=S)[nH]1
inactive

Hey, what did the test say about Cc1cc(C2CCCCC2)n(O)c(=O)c1 ?
active

What did this assay record as the result for CCCCc1ccc2nc(NC(=O)OC)[nH]c2c1 ?
inactive
